Entry source: patent US8735395B2

- MEASURED TARGET: UniProt P25774
- Sequence (P25774 115-331): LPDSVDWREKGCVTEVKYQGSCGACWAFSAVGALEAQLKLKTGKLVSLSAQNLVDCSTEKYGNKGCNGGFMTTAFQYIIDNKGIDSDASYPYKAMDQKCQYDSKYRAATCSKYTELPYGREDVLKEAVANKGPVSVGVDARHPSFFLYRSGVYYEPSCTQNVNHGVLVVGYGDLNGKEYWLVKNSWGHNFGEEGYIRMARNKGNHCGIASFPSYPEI
- METHOD DESCRIPTION: Cathepsin S Ki determination
- Assay type: biochemical
- SETUP CONDITIONS: Test 1, class symbols
ASSAY ENDPOINT: Ki

C#C[C@@H]1CN(C(=O)[C@H](CC(C)C)NC(=O)c2ccc(-c3nc(N4CCN(C)CC4)sc3F)cc2)[C@@H]2C(=O)CO[C@H]12; > 10 µM

// switching to the query molecule
Ki for `C#C[C@@H]1CN(C(=O)[C@H](CC(C)C)NC(=O)c2ccc(-c3csc(N4CCN(C)CC4)n3)cc2)[C@@H]2C(=O)CO[C@H]12` is > 10 µM

###

- MEASURED TARGET: human recombinant cathepsin K (Homo sapiens (Human))
- Sequence (P43235 115-329): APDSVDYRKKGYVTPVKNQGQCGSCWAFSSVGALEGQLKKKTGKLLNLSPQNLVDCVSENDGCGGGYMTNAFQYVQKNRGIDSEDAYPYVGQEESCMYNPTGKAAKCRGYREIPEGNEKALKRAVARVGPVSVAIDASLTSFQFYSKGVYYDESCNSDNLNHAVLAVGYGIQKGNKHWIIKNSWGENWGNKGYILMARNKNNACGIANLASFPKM
- METHOD DESCRIPTION: Determination of cathepsin K proteolytic catalytic activity (Ki)
- Assay type: biochemical
- SETUP CONDITIONS: Test 2 or unnumbered test
ASSAY ENDPOINT: Ki
Form entry: enter the amount, then its unit.

// solved cases for Ki follow
C#C[C@@H]1CN(C(=O)[C@H](CC(C)C)NC(=O)c2ccc(-c3csc(N4CCN(C)CC4)n3)c(F)c2)[C@@H]2C(=O)CO[C@H]12; 4 nM
C#C[C@@H]1CN(C(=O)[C@H](CC(C)C)NC(=O)c2ccc(-c3csc(N4CCN(C)CC4)n3)cc2)[C@@H]2C(=O)CO[C@H]12; 1.6 nM

Noted for `C#C[C@@H]1CN(C(=O)[C@H](CC(C)C)NC(=O)c2ccc(-c3nc(N4CCN(C)CC4)sc3F)cc2)[C@@H]2C(=O)CO[C@H]12` : its Ki reads 1.1 nM

Reported Ki of `CC(C)=C[C@@H]1CN(C(=O)[C@H](CC(C)C)NC(=O)c2ccc(-c3nc(N4CCN(C)CC4)sc3F)cc2)[C@@H]2C(=O)CO[C@H]12` : 2.7 nM

###

- METHOD DESCRIPTION: Metabolic stability in whole blood (CLint)
- Assay type: in vitro ADME
- SETUP CONDITIONS: whole blood
ASSAY ENDPOINT: microsomal CLint (µL/min/mg)
Return type: number; implicit unit µL/min/mg.

CC(C)C[C@H](NC(=O)c1ccc(-c2csc(N3CCN(C)CC3)n2)cc1)C(=O)N1C[C@@H](C)[C@H]2OCC(=O)[C@H]21; 9

Kindly consider the entry below.
For record `C#C[C@@H]1CN(C(=O)[C@H](CC(C)C)NC(=O)c2ccc(-c3csc(N4CCN(C)CC4)n3)cc2)[C@@H]2C(=O)CO[C@H]12` the listed microsomal CLint is 3

###

- MEASURED TARGET: human cathepsin L (Homo sapiens (Human), UniProt P07711)
- Sequence (P07711 114-333): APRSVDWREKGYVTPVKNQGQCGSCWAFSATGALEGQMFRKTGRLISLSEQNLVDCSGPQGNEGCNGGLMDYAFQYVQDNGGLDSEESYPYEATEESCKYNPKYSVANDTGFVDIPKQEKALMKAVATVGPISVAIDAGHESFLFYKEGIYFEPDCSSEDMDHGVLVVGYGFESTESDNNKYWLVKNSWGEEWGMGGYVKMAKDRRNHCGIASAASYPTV
- METHOD DESCRIPTION: Cathepsin L Ki
- Assay type: biochemical
- SETUP CONDITIONS: Test 2 or unnumbered test
Ki values by entry
The figure you give is taken to be in nM; do not add the unit.

CC(C)=C[C@@H]1CN(C(=O)[C@H](CC(C)C)NC(=O)c2ccc(-c3nc(N4CCN(C)CC4)sc3F)cc2)[C@@H]2C(=O)CO[C@H]12; 300

Input `C#C[C@@H]1CN(C(=O)[C@H](CC(C)C)NC(=O)c2ccc(-c3csc(N4CCN(C)CC4)n3)c(F)c2)[C@@H]2C(=O)CO[C@H]12` . Output Ki: 1400

In plain terms, `C#C[C@@H]1CN(C(=O)[C@H](CC(C)C)NC(=O)c2ccc(-c3nc(N4CCN(C)CC4)sc3F)cc2)[C@@H]2C(=O)CO[C@H]12` has a documented Ki of 1700

response.value for `C#C[C@@H]1CN(C(=O)[C@H](CC(C)C)NC(=O)c2ccc(-c3csc(N4CCN(C)CC4)n3)cc2)[C@@H]2C(=O)CO[C@H]12` (field: Ki) = 2000
